B1: INTS3 (parent)
chain: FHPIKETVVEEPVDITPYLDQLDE

- Variants of: B1
- assay.protocol: protein stability index of a GFP-peptide fusion (GPS, HEK-293T) (PSI 1-6); higher = more stable;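 also: lentivirally expressed fusions sorted by FACS into six bins by GFP to DsRed ratio, PSI derived from sequencing read proportions per bin multiplied by bin number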
- condition.label: c terminus: a fixed tail appended
Use 3 as the dividing line for protein stability index, with the line itself on the label 1 side and lower values as label 0.

• E10M = label 0
• L19Q = label 0
• K5Q = label 1
• L22I = label 1
• K5F = label 1

Please indicate if the recorded protein stability index for D20I meets or exceeds 3.
label 0

Try this variant next: Q21D
label 1

Try this variant next: L22W
label 0

The reported numbers originate from the supplement of paper PMC10567573.
